target-or-system: hCES1A (Homo sapiens)
Sequence (P23141 18-567): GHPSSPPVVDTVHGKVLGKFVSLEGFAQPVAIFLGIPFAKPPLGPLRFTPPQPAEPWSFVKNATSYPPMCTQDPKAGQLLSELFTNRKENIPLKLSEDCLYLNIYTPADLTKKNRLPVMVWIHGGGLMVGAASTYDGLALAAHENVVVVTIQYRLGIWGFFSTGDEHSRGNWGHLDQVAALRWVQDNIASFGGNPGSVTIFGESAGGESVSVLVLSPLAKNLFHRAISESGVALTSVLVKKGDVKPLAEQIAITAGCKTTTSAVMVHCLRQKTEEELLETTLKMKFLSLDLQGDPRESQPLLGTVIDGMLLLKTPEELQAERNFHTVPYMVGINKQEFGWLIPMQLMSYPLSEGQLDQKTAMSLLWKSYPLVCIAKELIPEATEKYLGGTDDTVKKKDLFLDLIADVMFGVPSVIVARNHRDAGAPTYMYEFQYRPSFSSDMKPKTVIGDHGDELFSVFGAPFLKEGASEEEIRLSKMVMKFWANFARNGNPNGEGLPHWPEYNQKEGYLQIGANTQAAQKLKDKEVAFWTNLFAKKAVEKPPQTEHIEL
assay-details: Inhibition assay on hCES1A (bioluminogenic substrate NLMe)
Type: biochemical
conditions: 3 min incubation; mean ± SD, n = 3; read-out: hCES1A IC50 3 min
experimental-endpoint: pIC50
// pIC50: -log10(molar conc.)

Q: Name the recorded pIC50 for O=C(c1ccc(F)cc1)C(F)(F)F .
Result: 5.77

Q: Name the recorded pIC50 for O=C(c1cc(Cl)c(Cl)c(Cl)c1)C(F)(F)F .
Result: 7.52

Q: Name the recorded pIC50 for O=C(c1ccc(Cl)cc1)C(F)(F)F .
Result: 7.84

Q: Name the recorded pIC50 for O=C(c1ccccc1Br)C(F)(F)F .
Result: 8.00

Q: Name the recorded pIC50 for COc1ccc(C(=O)C(F)(F)F)cc1 .
Result: 7.52

Q: Name the recorded pIC50 for CCc1ccc(C(=O)C(F)(F)F)cc1 .
Result: 7.73

Q: Name the recorded pIC50 for O=C(c1cccc(Br)c1)C(F)(F)F .
Result: 7.77

Q: Name the recorded pIC50 for O=C(c1cccc(Cl)c1)C(F)(F)F .
Result: 7.47

Q: Name the recorded pIC50 for Nc1ccc(C(=O)C(F)(F)F)cc1 .
Result: 6.33

Where these numbers come from: paper PMC11649397
